System: mock (empty vector) transfected HEK293 cells
test.details: IP accumulation assay, negative control: empty vector (mock) instead of the receptor
Type: cell-based, Homo sapiens
conditions.used: 10 µM peptide, 1 h, HBSS + 20 mM LiCl; HEK293 with empty vector instead of receptor (negative control); HTRF IP-One; mean of >=3 independent experiments
quantity: IP accumulation, mock

Form: substance = AGSDPNFLRF-NH2 [FLP-1-2, C. elegans FMRFamide-like peptide, C-terminally amidated, synthesized by SPPS] ; IP accumulation, mock = 1.78 x-fold of basal

Form: substance = ASPSFIRF-NH2 [FLP-4-2, C. elegans FMRFamide-like peptide, C-terminally amidated, synthesized by SPPS] ; IP accumulation, mock = 0.75 x-fold of basal

Form: substance = APKPKFIRF-NH2 [FLP-5-1, C. elegans FMRFamide-like peptide, C-terminally amidated, synthesized by SPPS] ; IP accumulation, mock = 1.01 x-fold of basal

Form: substance = NPENDTPFGTMRF-NH2 [FLP-3-4, C. elegans FMRFamide-like peptide, C-terminally amidated, synthesized by SPPS] ; IP accumulation, mock = 1.16 x-fold of basal
